# ASSAY_REMARKS: plasma protein binding
# Format: in vitro ADME, mouse
# PROTOCOL_CONDITIONS: range over mouse, rat, dog, monkey, minipig and human plasma; read-out: % free drug
PROPERTY: fraction unbound

Query string: Tell me the measured fraction unbound of C[C@@H](N)C1CCN(S(=O)(=O)c2cccc3cnccc23)CC1 [NRL-1049] , please.
Result string: 0.541 to 0.706

----------
# ASSAY_REMARKS: first-in-human single ascending dose and food-effect study, plasma pharmacokinetics
# Type: in vivo
# PROTOCOL_CONDITIONS: both sexes, human, plasma, po, 150 mg, plasma NRL-1049; mean; 150 mg NRL-1049 single oral, Fed, Cohort 3, N = 10; read-out: Vz/F
PROPERTY: Vd/F

Query string: Tell me the measured Vd/F of C[C@@H](N)C1CCN(S(=O)(=O)c2cccc3cnccc23)CC1 [NRL-1049] , please.
Result string: 10800 L

----------
# ASSAY_REMARKS: first-in-human single ascending dose and food-effect study, plasma pharmacokinetics
# Format: in vivo
# PROTOCOL_CONDITIONS: both sexes, human, plasma, po, 250 mg, plasma NRL-1049; median; 250 mg NRL-1049 single oral, fasting, Cohort 4, N = 6; read-out: Tmax
PROPERTY: Tmax (min)
Entry rule: numbers only, all in min.

Query string: Tell me the measured Tmax of "C[C@@H](N)C1CCN(S(=O)(=O)c2cccc3cnccc23)CC1" , please.
Result string: 30

----------
# ASSAY_REMARKS: first-in-human single ascending dose and food-effect study, plasma pharmacokinetics
# Assay type: in vivo
# PROTOCOL_CONDITIONS: both sexes, human, plasma, po, 150 mg, plasma NRL-1049; mean; 150 mg NRL-1049 single oral, Fed, Cohort 3, N = 10; read-out: Cmax
PROPERTY: Cmax (ng/mL)
Entry rule: numbers only, all in ng/mL.

Query string: Tell me the measured Cmax of "C[C@@H](N)C1CCN(S(=O)(=O)c2cccc3cnccc23)CC1" , please.
Result string: 18.5

----------
# ASSAY_REMARKS: first-in-human single ascending dose and food-effect study, plasma pharmacokinetics
# Format: in vivo
# PROTOCOL_CONDITIONS: both sexes, human, plasma, po, 250 mg, plasma NRL-1049; mean; 250 mg NRL-1049 single oral, fasting, Cohort 4, N = 6; read-out: AUC0-Tmax
PROPERTY: AUC (ng·h/mL)
Entry rule: numbers only, all in ng·h/mL.

Query string: Tell me the measured AUC of C[C@@H](N)C1CCN(S(=O)(=O)c2cccc3cnccc23)CC1 [NRL-1049] , please.
Result string: 8.73

----------
# ASSAY_REMARKS: first-in-human single ascending dose and food-effect study, plasma pharmacokinetics
# Type: in vivo
# PROTOCOL_CONDITIONS: both sexes, human, plasma, po, 150 mg, plasma metabolite NRL-2017; median; 150 mg NRL-1049 single oral, Fasted, Cohort 3, N = 6; read-out: Tmax
PROPERTY: Tmax (h)
Entry rule: numbers only, all in h.

Query string: Tell me the measured Tmax of C[C@@H](N)C1CCN(S(=O)(=O)c2cccc3c(O)nccc23)CC1 [NRL-2017, 1-hydroxy NRL-1049] , please.
Result string: 1.13

----------
# ASSAY_REMARKS: first-in-human single ascending dose and food-effect study, plasma pharmacokinetics
# Format: in vivo
# PROTOCOL_CONDITIONS: both sexes, human, plasma, po, 150 mg, plasma NRL-1049; mean; 150 mg NRL-1049 single oral, Fed, Cohort 3, N = 10; read-out: AUCinf
PROPERTY: AUC(0-inf)
Your reply should be a number followed by the unit it is expressed in.

Query string: Tell me the measured AUC(0-inf) of C[C@@H](N)C1CCN(S(=O)(=O)c2cccc3cnccc23)CC1 [NRL-1049] , please.
Result string: 44.7 ng·h/mL

----------
# ASSAY_REMARKS: first-in-human single ascending dose and food-effect study, plasma pharmacokinetics
# Type: in vivo
# PROTOCOL_CONDITIONS: both sexes, human, plasma, po, 25 mg, plasma NRL-1049; mean; 25 mg NRL-1049 single oral, fasting, Cohort 1, N = 6; read-out: AUC0-T
PROPERTY: AUC(0-t) (ng·h/mL)
Entry rule: numbers only, all in ng·h/mL.

Query string: Tell me the measured AUC(0-t) of "C[C@@H](N)C1CCN(S(=O)(=O)c2cccc3cnccc23)CC1" , please.
Result string: 3.03

----------
# ASSAY_REMARKS: first-in-human single ascending dose and food-effect study, plasma pharmacokinetics
# Assay type: in vivo
# PROTOCOL_CONDITIONS: both sexes, human, plasma, po, 75 mg, plasma NRL-1049; mean; 75 mg NRL-1049 single oral, fasting, Cohort 2, N = 6; read-out: Vz/F
# Description: This was a first-in-human, single center, randomized, double-blind, placebo-controlled, single ascending dose (SAD) study, including a food-effect assessment, in healthy male and female subjects. Up to 44 subjects were included in the study. […] Study drugs (NRL-1049 or placebo) were administered in the morning. The date and time of each dose was recorded. […]
PROPERTY: Vd/F

Query string: Tell me the measured Vd/F of "C[C@@H](N)C1CCN(S(=O)(=O)c2cccc3cnccc23)CC1" , please.
Result string: 6020 L

----------
# ASSAY_REMARKS: first-in-human single ascending dose and food-effect study, plasma pharmacokinetics
# Format: in vivo
# PROTOCOL_CONDITIONS: both sexes, human, plasma, oral, range over dose range 25 to 250 mg NRL-1049, fasting state; read-out: mean AUC0-T
PROPERTY: AUC(0-t)

COMPOUND | AUC(0-t)
C[C@@H](N)C1CCN(S(=O)(=O)c2cccc3c(O)nccc23)CC1 [NRL-2017, 1-hydroxy NRL-1049] | 478 to 6690 ng·h/mL

Query string: Tell me the measured AUC(0-t) of "C[C@@H](N)C1CCN(S(=O)(=O)c2cccc3cnccc23)CC1" , please.
Result string: 3.03 to 76.5 ng·h/mL

----------
# ASSAY_REMARKS: first-in-human single ascending dose and food-effect study, plasma pharmacokinetics
# Assay type: in vivo
# PROTOCOL_CONDITIONS: both sexes, human, plasma, po, 75 mg, plasma NRL-1049; mean; 75 mg NRL-1049 single oral, fasting, Cohort 2, N = 6; read-out: Cmax
PROPERTY: Cmax

Query string: Tell me the measured Cmax of C[C@@H](N)C1CCN(S(=O)(=O)c2cccc3cnccc23)CC1 [NRL-1049] , please.
Result string: 16.9 ng/mL

----------
# ASSAY_REMARKS: first-in-human single ascending dose and food-effect study, plasma pharmacokinetics
# Assay type: in vivo
# PROTOCOL_CONDITIONS: both sexes, human, plasma, po, 75 mg, plasma NRL-1049; mean; 75 mg NRL-1049 single oral, fasting, Cohort 2, N = 6; read-out: AUCinf
PROPERTY: AUC(0-inf) (ng·h/mL)
Entry rule: numbers only, all in ng·h/mL.

Query string: Tell me the measured AUC(0-inf) of "C[C@@H](N)C1CCN(S(=O)(=O)c2cccc3cnccc23)CC1" , please.
Result string: 15.2

----------
Sequence of the target: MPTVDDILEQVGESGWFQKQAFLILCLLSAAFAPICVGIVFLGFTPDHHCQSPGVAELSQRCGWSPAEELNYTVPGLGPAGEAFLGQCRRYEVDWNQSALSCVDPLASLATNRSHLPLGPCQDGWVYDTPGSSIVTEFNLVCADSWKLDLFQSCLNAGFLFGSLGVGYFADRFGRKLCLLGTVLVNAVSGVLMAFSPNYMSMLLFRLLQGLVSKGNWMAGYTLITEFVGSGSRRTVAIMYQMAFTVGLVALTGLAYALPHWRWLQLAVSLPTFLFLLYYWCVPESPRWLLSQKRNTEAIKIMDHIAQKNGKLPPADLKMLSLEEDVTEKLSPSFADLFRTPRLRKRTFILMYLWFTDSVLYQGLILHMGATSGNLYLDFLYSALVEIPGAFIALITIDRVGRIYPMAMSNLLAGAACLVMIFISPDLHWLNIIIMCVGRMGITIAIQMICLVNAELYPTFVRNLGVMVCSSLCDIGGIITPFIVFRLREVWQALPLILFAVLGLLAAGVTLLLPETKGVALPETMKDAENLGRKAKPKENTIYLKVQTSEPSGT
PROPERTY: IC50

Query string: Tell me the measured IC50 of C[C@@H](N)C1CCN(S(=O)(=O)c2cccc3cnccc23)CC1 [NRL-1049] , please.
Result string: 8.54 to 66.2 µM

----------
# ASSAY_REMARKS: first-in-human single ascending dose and food-effect study, plasma pharmacokinetics
# Format: in vivo
# PROTOCOL_CONDITIONS: both sexes, human, plasma, po, 25 mg, plasma NRL-1049; median; 25 mg NRL-1049 single oral, fasting, Cohort 1, N = 6; read-out: Tmax
PROPERTY: Tmax
Your reply should be a number followed by the unit it is expressed in.

Query string: Tell me the measured Tmax of "C[C@@H](N)C1CCN(S(=O)(=O)c2cccc3cnccc23)CC1" , please.
Result string: 45 min
